Reported EC50, decrease of electrical resistance across MDCK cell monolayer is given for each of the following binders.
- study system: T1, E-cadherin on Madin Darby canine kidney (MDCK) cells (canine (MDCK cells), UniProt F1PAA9 157-885)
- T1 sequence (looked up): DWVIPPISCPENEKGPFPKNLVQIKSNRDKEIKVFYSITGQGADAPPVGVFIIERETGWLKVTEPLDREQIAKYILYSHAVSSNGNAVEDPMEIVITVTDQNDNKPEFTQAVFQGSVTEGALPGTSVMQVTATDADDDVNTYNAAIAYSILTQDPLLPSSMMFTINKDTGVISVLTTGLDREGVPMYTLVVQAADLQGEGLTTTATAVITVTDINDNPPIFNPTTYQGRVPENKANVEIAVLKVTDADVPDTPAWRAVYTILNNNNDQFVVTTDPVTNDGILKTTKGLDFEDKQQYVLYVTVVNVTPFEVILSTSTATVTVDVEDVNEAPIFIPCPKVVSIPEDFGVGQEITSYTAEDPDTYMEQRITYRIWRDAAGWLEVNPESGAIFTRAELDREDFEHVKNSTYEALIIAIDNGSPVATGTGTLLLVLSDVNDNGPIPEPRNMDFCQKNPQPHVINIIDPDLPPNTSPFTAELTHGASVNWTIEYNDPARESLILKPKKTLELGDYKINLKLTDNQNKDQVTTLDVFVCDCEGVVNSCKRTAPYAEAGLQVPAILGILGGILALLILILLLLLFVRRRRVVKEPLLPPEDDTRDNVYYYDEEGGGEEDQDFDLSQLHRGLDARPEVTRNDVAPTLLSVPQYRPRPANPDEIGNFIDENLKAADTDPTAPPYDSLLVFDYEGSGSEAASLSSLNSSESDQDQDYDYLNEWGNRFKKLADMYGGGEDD
- test: cell-based or functional assay
Positions of bridges follow the written chain, without caps; N, C: chain ends.
parameter measured: EC50, decrease of electrical resistance across MDCK cell monolayer (µM)

binder	obs value
Ac-CHAVCD-NH2 (disulfide 1-5 (inferred)) [N-Ac-CHAVC-D-NH2]	470
Ac-CHAVCT-NH2 (disulfide 1-5 (inferred)) [N-Ac-CHAVC-T-NH2]	480
Ac-CHAVCY-NH2 (disulfide 1-5 (inferred)) [N-Ac-CHAVC-Y-NH2]	210
Ac-CHAVCS-NH2 (disulfide 1-5 (inferred)) [N-Ac-CHAVC-S-NH2]	490
Ac-SCHAVC-NH2 (disulfide 2-6; SMILES CC(=O)N[C@@H](CO)C(=O)N[C@H]1CSSC[C@@H](C(N)=O)NC(=O)[C@H](C(C)C)NC(=O)[C@H](C)NC(=O)[C@H](Cc2c[nH]cn2)NC1=O) [N-Ac-S-CHAVC-NH2]	490
Ac-CHAVCSS-NH2 (disulfide 1-5 (inferred)) [N-Ac-CHAVC-SS-NH2]	430
